// data source = paper PMC4227782

- targetOrSystem: MBNL1 (2-260) (UniProt Q9NR56)
- Sequence: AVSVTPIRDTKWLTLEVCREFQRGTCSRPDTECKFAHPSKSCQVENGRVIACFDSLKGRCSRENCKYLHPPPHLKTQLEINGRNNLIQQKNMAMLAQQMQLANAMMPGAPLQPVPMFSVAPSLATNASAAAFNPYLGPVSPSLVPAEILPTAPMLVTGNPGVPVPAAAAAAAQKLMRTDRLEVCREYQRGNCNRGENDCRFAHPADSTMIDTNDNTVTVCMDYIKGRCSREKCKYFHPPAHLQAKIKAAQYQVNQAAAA
- measurementProtocol: EMSA
- conditionLabel: 5 mM Mg2+, 0.1 mg/ml heparin; 175 mM NaCl, 20 mM Tris pH 7.5, 1 mM BME, 10% glycerol, 5 mM MgCl2, 0.1 mg/ml heparin, 2 mg/ml BSA, 0.02% xylene cyanol, 0.05% bromophenol blue; 20 min at room …
propertyMeasured: Kd (µM)
Number in µM, nothing else.

Req: Field request: Kd | item: CUGCUGCUGCUG [(CUG)4]
Resp: 0.3

* * *

- targetOrSystem: MBNL1 (2-260) (UniProt Q9NR56)
- Sequence: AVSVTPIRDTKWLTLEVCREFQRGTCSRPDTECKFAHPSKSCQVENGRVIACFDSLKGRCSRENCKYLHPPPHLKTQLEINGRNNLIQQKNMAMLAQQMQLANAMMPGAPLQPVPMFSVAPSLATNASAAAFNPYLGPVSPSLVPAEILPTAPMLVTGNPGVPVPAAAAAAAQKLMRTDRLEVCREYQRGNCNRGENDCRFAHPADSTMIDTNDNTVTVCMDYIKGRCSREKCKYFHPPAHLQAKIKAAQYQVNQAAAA
- measurementProtocol: EMSA
- conditionLabel: 5 mM Mg2+, 0.1 mg/ml heparin; 2 pseudouridines replacing U; positions only in Fig 1B; 175 mM NaCl, 20 mM Tris pH 7.5, 1 mM BME, 10% glycerol, 5 mM MgCl2, 0.1 mg/ml heparin, 2 mg/ml BSA, 0.02% xylene cyanol, 0.05% bromophenol blue; 20 min at room …
propertyMeasured: pKd
Answer as the number alone; pKd is minus log10 of concentration in mol/L.

Req: Field request: pKd | item: CUGCUGCUGCUG [2Ψ(CUG)4]
Resp: 5.22

* * *

- targetOrSystem: MBNL1 (2-260) (UniProt Q9NR56)
- Sequence: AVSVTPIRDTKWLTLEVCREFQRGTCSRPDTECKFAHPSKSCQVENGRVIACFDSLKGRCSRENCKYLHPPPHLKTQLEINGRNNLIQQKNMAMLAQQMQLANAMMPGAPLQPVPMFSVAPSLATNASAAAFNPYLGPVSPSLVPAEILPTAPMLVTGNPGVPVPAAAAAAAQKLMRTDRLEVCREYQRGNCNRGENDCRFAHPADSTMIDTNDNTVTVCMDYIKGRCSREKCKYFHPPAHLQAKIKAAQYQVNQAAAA
- measurementProtocol: EMSA
- conditionLabel: 5 mM Mg2+, 0.1 mg/ml heparin; 2 2'-O-methyl; positions only in Fig 1B; 175 mM NaCl, 20 mM Tris pH 7.5, 1 mM BME, 10% glycerol, 5 mM MgCl2, 0.1 mg/ml heparin, 2 mg/ml BSA, 0.02% xylene cyanol, 0.05% bromophenol blue; 20 min at room …
propertyMeasured: Kd (µM)
Number in µM, nothing else.

Req: Field request: Kd | item: CUGCUGCUGCUG [2-2'Ome(CUG)4]
Resp: 0.89

* * *

- targetOrSystem: MBNL1 (2-260)
- Sequence: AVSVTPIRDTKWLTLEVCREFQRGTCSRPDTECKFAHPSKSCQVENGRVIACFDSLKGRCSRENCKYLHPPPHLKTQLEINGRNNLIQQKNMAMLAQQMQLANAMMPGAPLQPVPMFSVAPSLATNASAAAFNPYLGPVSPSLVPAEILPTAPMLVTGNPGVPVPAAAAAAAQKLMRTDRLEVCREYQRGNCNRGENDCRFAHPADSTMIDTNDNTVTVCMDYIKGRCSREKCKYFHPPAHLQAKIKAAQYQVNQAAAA
- measurementProtocol: EMSA
- conditionLabel: 5 mM Mg2+, 0.1 mg/ml heparin; 1 2'-O-methyl; position only in Fig 1B; 175 mM NaCl, 20 mM Tris pH 7.5, 1 mM BME, 10% glycerol, 5 mM MgCl2, 0.1 mg/ml heparin, 2 mg/ml BSA, 0.02% xylene cyanol, 0.05% bromophenol blue; 20 min at room …
propertyMeasured: Kd

Req: Field request: Kd | item: CUGCUGCUGCUG [1-2'Ome(CUG)4]
Resp: 0.65 µM

* * *

- targetOrSystem: MBNL1 (2-260) (UniProt Q9NR56)
- Sequence: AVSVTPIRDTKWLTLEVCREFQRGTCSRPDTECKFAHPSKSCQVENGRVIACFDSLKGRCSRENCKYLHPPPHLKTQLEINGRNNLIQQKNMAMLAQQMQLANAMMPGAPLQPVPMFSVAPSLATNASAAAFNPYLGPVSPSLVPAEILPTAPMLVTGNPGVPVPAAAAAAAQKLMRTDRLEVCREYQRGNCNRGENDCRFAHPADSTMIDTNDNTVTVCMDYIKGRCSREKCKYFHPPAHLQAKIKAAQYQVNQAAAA
- measurementProtocol: EMSA
- conditionLabel: 5 mM Mg2+, 0.1 mg/ml heparin; 4 2'-O-methyl; positions only in Fig 1B; 175 mM NaCl, 20 mM Tris pH 7.5, 1 mM BME, 10% glycerol, 5 mM MgCl2, 0.1 mg/ml heparin, 2 mg/ml BSA, 0.02% xylene cyanol, 0.05% bromophenol blue; 20 min at room …
propertyMeasured: Kd (µM)
Number in µM, nothing else.

Req: Field request: Kd | item: CUGCUGCUGCUG [4-2'Ome(CUG)4]
Resp: 1

* * *

- targetOrSystem: MBNL1 (2-260) (UniProt Q9NR56)
- Sequence: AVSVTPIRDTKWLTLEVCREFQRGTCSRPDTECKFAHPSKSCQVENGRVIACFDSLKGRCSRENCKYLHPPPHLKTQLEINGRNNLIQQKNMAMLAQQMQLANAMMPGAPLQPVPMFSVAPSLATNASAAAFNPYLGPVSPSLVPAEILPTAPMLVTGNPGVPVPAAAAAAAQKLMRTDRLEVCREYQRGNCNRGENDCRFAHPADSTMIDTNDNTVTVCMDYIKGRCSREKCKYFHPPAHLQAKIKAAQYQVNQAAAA
- measurementProtocol: EMSA
- conditionLabel: 5 mM Mg2+, 0.1 mg/ml heparin; Kd immeasurable; 4 pseudouridines replacing U; 175 mM NaCl, 20 mM Tris pH 7.5, 1 mM BME, 10% glycerol, 5 mM MgCl2, 0.1 mg/ml heparin, 2 mg/ml BSA, 0.02% xylene cyanol, 0.05% bromophenol blue; 20 min at room …
propertyMeasured: Kd

Req: Field request: Kd | item: CUGCUGCUGCUG [4Ψ(CUG)4]
Resp: > 5 µM
